Assay details: physchem
Setup conditions: buffer, pH 7.4, logD
Description: Chromatographic hydrophobicity index, log D of the compound at pH 7.4 by HPLC method
Readout name: chromatographic logD

The following compounds have reported results that may help.
Compound	Quantitative result
CCC1CN(Cc2ccccc2)c2cc(Br)ccc2N1C(C)=O (stereo not drawn)	7.4
CC(=O)N1c2ccccc2N(Cc2ccccc2C#N)CC1C1CC1 (stereo not drawn)	6
CC(=O)N1c2ccccc2N(Cc2ccccc2)CC1C (stereo not drawn)	5.9
CCC1CN(Cc2ccccc2)c2cc(-c3ccc(C(N)=O)nc3)ccc2N1C(C)=O (stereo not drawn)	4.5
CC(=O)N1c2ccccc2N(Cc2ccccc2C(=O)O)CC1C1CC1 (stereo not drawn)	2.2
CC(=O)N1CCN(Cc2cccc(C)c2)c2ccccc21	5.9
CCC1CN(Cc2ccccc2)c2cc(-c3cnoc3)ccc2N1C(C)=O (stereo not drawn)	5.9
CCC1CN(Cc2ccccc2)c2cc(-c3ccc(=O)[nH]c3)ccc2N1C(C)=O (stereo not drawn)	3.5
CCC1CN(Cc2ccccc2)c2cc(-c3cnc(C)cn3)ccc2N1C(C)=O (stereo not drawn)	6.1
CC(=O)N1c2ccccc2N(Cc2ccccc2OCCO)CC1C1CC1 (stereo not drawn)	4.9

1. CC(=O)N1c2ccccc2N(Cc2ccccc2C(=O)O)CC1C (stereo not drawn)
2. CCC1CN(Cc2ccccc2)c2cc(-c3cccc(C(N)=O)c3)ccc2N1C(C)=O (stereo not drawn)
3. COc1ccccc1CN1CC(C2CC2)N(C(C)=O)c2ccccc21 (stereo not drawn)
4. CC(=O)N1c2ccccc2N(Cc2cc(C)ccc2C(=O)O)CC1C1CC1 (stereo not drawn)
Ordering: ascending chromatographic logD. Please write the labels in the order that was asked for.
1, 4, 2, 3
(1: 1.5, 4: 2.4, 2: 4.7, 3: 6.9)
